run description: Toxicity liver stage against HepG2, at 10uM
Type: cell-based
Set-up: test concentration 10 uM, cell line HepG2-A16-CD81EGFP
settings: human, HepG2-A16-CD81EGFP cells; read-out: INHIBITION
measured property: cytotoxicity at 10 µM (%)

compound=CSCc1noc(Cn2ncn3cccc3c2=O)n1 reported_result=4.44
compound="CC(NC(=O)NC1CC1)c1nc(-c2ccccc2)cs1 (stereo not drawn)" reported_result=-5.83
compound="O=C(NC1CCN(c2ccccc2Br)C1)c1c[nH]nn1 (stereo not drawn)" reported_result=-17.9
compound=O=c1cc(CN2CC[C@@H]3CC[C@H](C2)N3)c2cccc3c2n1CCC3 reported_result=9.64
compound=O=c1cc(Cn2cncn2)nc2n1CCCN(Cc1ccoc1)C2 reported_result=3.37
compound="COCC1CN(C(=O)Nc2ccc(Cl)cc2Cl)CCO1 (stereo not drawn)" reported_result=4.26
compound=CC(C)Cc1cc(CC2(NCc3ccccc3Cl)COC2)no1 reported_result=-7.55
compound=O=C(NCCN1CCC(c2cccs2)CC1)c1ccccc1C(F)(F)F reported_result=-20.2
compound=CC(C)Oc1ncnc2c1CCN(c1cc(C(F)(F)F)ncn1)CC2 reported_result=19
compound=CSCC[C@@H](CO)n1ccnc1-c1ccncc1 reported_result=7.21
compound=CCc1nnc2n1CCN(C=C1NN=C(c3occc3C)O1)C2 reported_result=-10
compound="Cc1nn(C)c(N2CCOCC2)c1CNC1CCc2ccccc2C1 (stereo not drawn)" reported_result=-11.4
compound="c1ccc(N2CCOC3(CCCN(c4ncccn4)C3)C2)nc1 (stereo not drawn)" reported_result=-103
